Each recorded value in this set is attributed to PubChem BioAssay (EPA / NIEHS).

- Read-out: Alpha-fetoprotein (AFP) gene, AFP (gene 174)
- measurement.protocol: LTEA_HepaRG_AFP: Life Technologies and Expression Analysis (LTEA) Assay for Alpha-fetoprotein (AFP) gene using HepaRG (AID 2283472)
- test.settings: mRNA level, 48 h; actives raise or lower the signal
Calls of active or inactive are those of the source. How the source made its calls: active means hit-call score of the fitted dose curve at least 0.9, where 1 is the maximum; inactive means score below 0.9.
Outcomes: active, inactive

molecule	category.label
OCCC(F)(F)C(F)(F)C(F)(F)C(F)(F)C(F)(F)C(F)(F)F	inactive
CC(C)CCCCCCOC(=O)CCCCC(=O)OCCCCCCC(C)C	inactive
Oc1cc2ccccc2c2ccccc12	inactive
CCCCCCCCOC(=O)CCCCCCCCC(=O)OCCCCCCCC	inactive
CCCCCCCCCCCCc1ccccc1S(=O)(=O)O	active
CCCOC(=O)c1ccc(O)cc1	inactive

====

- Read-out: Cyclin Dependent Kinase Inhibitor 1A (CDKN1A), CDKN1A (gene 1026)
- measurement.protocol: LTEA_HepaRG_CDKN1A: Life Technologies and Expression Analysis (LTEA) Assay for Cyclin Dependent Kinase Inhibitor 1A (CDKN1A) using HepaRG (AID 2283450)
- test.settings: mRNA level, 48 h; actives raise or lower the signal
The source made the active and inactive calls. How the source made its calls: active means hit-call score of the fitted dose curve at least 0.9, where 1 is the maximum; inactive means score below 0.9.
Outcomes: active, inactive

compound	category.label
CCc1ccc(CCOc2ccc(CC3SC(=O)NC3=O)cc2)nc1 (configuration not stated)	active
CCCCCCCCCCCCc1ccccc1S(=O)(=O)O	inactive
N#C[C@@H]1CC(F)(F)CN1C(=O)CNC1CC2CCC(C1)N2c1ncccn1 (some centres not stated)	inactive
C[C@@H]1C[C@H]2[C@@H]3CCC4=CC(=O)C=C[C@]4(C)[C@@]3(F)[C@@H](O)C[C@]2(C)[C@@]1(O)C(=O)COP(=O)(O)O	inactive
NC(=O)N1C(=O)C(C(=O)c2cc(Cl)cs2)c2cc(F)c(Cl)cc21 (configuration not stated)	inactive
CC(=O)NC1(c2cccc(F)c2)CCN(CC[C@@]2(c3ccc(Cl)c(Cl)c3)CN(c3ccccc3)C(=O)CO2)CC1	inactive
COCC(C)O (configuration not stated)	inactive
O=c1c(-c2ccc(O)cc2)coc2cc(O)ccc12	inactive
c1ccc2c(c1)ccc1ccccc12	inactive
OC1CCC(C2CCCCC2)CC1 (configuration not stated)	inactive
CCCCCCCCCCCCN1CCCC1=O	inactive
O=C(O)c1ccccc1C(c1ccc(O)cc1)c1ccc(O)cc1	inactive

====

- Read-out: Early growth response protein 1 (EGR1) transcription factor, EGR1 (gene 1958)
- measurement.protocol: LTEA_HepaRG_EGR1: Life Technologies and Expression Analysis (LTEA) Assay for Early growth response protein 1 (EGR1) transcription factor using HepaRG (AID 2283490)
- test.settings: mRNA level, 48 h; actives raise or lower the signal
- Method: LTEA_HepaRG is a cell based, multiplexed-readout assay that uses HepaRG, a human liver cell line, with measurements taken at 48 hours after chemical dosing on a 96-well plate.LTEA_HepaRG_EGR1 is one of 102 assay component(s) measured in the LTEA HepaRG cell culture assay. It is a marker of Cell proliferation, survival, death.Data from the assay component LTEA_HepaRG_EGR1 was analyzed into 1 endpoint. […]
Active and inactive are the calls of the source. How the source made its calls: active means hit-call score of the fitted dose curve at least 0.9, where 1 is the maximum; inactive means score below 0.9.
Outcomes: active, inactive

compound	category.label
CCCCCCCCOC(=O)CCCCCCCCC(=O)OCCCCCCCC	inactive
NC(=O)N(O)[C@@H]1C=C[C@H](Oc2cccc(Oc3ccc(F)cc3)c2)C1	active
O=C(O)c1ccccc1C(c1ccc(O)cc1)c1ccc(O)cc1	inactive
C#C[C@]1(O)CC[C@H]2[C@@H]3CCC4=CC(=O)CC[C@@H]4[C@H]3CC[C@@]21C	inactive
O=C(O)Cc1cc(I)c(Oc2cc(I)c(O)c(I)c2)c(I)c1	active
O=[N+]([O-])c1ccc(O)cc1	inactive
CCCCC(CC)COC(=O)CCCCC(=O)OCc1ccccc1 (configuration not stated)	inactive
CC(O)CO (configuration not stated)	inactive
COC(=O)CCCCC(=O)OC	inactive
CCN(CC)CCNc1ccc(CNC=O)c2sc3ccc(OC)cc3c(=O)c12	active
Nc1cccc2c(N)cccc12	inactive
N#C[C@@H]1CC(F)(F)CN1C(=O)CNC1CC2CCC(C1)N2c1ncccn1 (some centres not stated)	inactive

====

- tested.on: Transcriptional activator Myb (Homo sapiens)
- measurement.protocol: ATG_Myb_CIS: Attagene CIS-FACTORIAL HepG2 Assay for human Myeloblastosis (Myb) Proto-Oncogene Transcription Factor (AID 2282986)
- test.settings: HepG2 Attagene CIS-FACTORIAL Myb reporter transcription; actives raise or lower the signal
- Method: ATG_CIS is a cell-based, multiplexed-readout assay that uses HepG2, a human liver cell line, with measurements taken at 24 hours after chemical dosing in a 24-well plate.ATG_Myb_CIS is one of 52 assay component(s) measured or calculated from the ATG_CIS assay. […] This assay endpoint, ATG_Myb_CIS, was analyzed with bidirectional fitting relative to DMSO as the negative control and baseline of activity. […]
The source made the active and inactive calls. How the source made its calls: active means hit-call score of the fitted dose curve at least 0.9, where 1 is the maximum; inactive means score below 0.9.
Outcomes: active, inactive

molecule	category.label
CC(C)(C)c1ccc(O)c(C(C)(C)C)c1	inactive
CCCCC[C@H](O)CC(=O)CCc1ccc(O)c(OC)c1	inactive
O=c1c(-c2ccc(O)cc2)coc2cc(O)ccc12	inactive
CCN(CC)CCNc1ccc(CNC=O)c2sc3ccc(OC)cc3c(=O)c12	inactive
COCC(C)OCC(C)O (configuration not stated)	inactive
O=C(O)Cc1cc(I)c(Oc2cc(I)c(O)c(I)c2)c(I)c1	inactive
CC1=C(/C=C/C(C)=C/C=C/C(C)=C/C(=O)O)C(C)(C)CCC1	inactive
OCCC(F)(F)C(F)(F)C(F)(F)C(F)(F)C(F)(F)C(F)(F)F	inactive
CC(C)(C)c1cc(C(C)(C)C)c(O)c(C(C)(C)C)c1	inactive
COC(=O)CCCCC(=O)OC	inactive
COc1cc(CCC(=O)CC(=O)CCc2ccc(O)c(OC)c2)ccc1O	active
c1ccc2cc3c(ccc4ccccc43)cc2c1	inactive

====

- tested.on: Estrogen receptor (Homo sapiens) (UniProt P03372)
- Sequence (P03372 whole entry, looked up): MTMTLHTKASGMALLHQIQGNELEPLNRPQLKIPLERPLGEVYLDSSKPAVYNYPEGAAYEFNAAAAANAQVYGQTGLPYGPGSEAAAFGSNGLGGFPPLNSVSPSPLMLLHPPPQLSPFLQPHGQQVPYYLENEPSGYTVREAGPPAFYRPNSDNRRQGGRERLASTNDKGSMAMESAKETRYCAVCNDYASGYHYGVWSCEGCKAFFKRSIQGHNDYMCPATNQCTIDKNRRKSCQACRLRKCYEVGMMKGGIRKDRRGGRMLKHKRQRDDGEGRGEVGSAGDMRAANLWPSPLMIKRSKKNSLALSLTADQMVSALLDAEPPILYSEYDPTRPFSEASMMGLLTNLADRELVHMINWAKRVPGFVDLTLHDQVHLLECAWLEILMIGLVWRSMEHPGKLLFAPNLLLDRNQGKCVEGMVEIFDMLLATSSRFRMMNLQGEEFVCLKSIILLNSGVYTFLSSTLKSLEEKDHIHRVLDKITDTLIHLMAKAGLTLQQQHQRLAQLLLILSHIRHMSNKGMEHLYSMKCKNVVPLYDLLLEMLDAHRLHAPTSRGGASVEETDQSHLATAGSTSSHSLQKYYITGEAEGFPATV
- measurement.protocol: CCTE_Deisenroth_AIME_96WELL_LUC_Active: CCTE's 96-well Estrogen Receptor Transactivation Assay with AIME metabolic competence (ERTA luciferase; metabolism positive), Deisenroth Lab (AID 2284023)
Records with an inconclusive call do not appear. Calls of active or inactive are those of the source. How the source made its calls: active means hit-call score of the fitted dose curve at least 0.9, where 1 is the maximum; inconclusive means response in the unintended direction; inactive means score below 0.9.
parameter: AC50

compound	reported.value
CCCCC[C@H](O)CC(=O)CCc1ccc(O)c(OC)c1	26 µM (active)
c1ccc2c(c1)ccc1ccccc12	inactive
c1ccc2c(c1)Cc1ccccc1-2	inactive
CCCCC(CC)COC(=O)CCCCC(=O)OCC(CC)CCCC (stereo unspecified)	inactive
c1ccc2cc3c(ccc4ccccc43)cc2c1	11.8 µM (active)
CC(C)(C)c1ccc(O)c(C(C)(C)C)c1	26.4 µM (active)

====

- measurement.protocol: BSK_KF3CT_SRB: Viability Assessment in the BioMAP Diversity Plus: KF3CT Assay (AID 2283069);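 further: total protein by sulforhodamine B staining as a cytotoxicity measure; read 24 h after compound addition; fitted for both signal gain and loss against DMSO baseline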
- test.settings: primary human keratinocytes with fibroblasts
- Protocol: BSK_KF3CT is a cell-based, multiplexed-readout assay that uses keratinocytes and foreskin fibroblasts, a human skin primary cell co-culture, with measurements taken at 24 hours after chemical dosing in a 96-well plate.BSK_KF3CT_SRB is an assay component measured in the BSK_KF3CT assay. It measures 0.1% sulforhodamine related to cell death using Sulforhodamine staining technology.Data from the assay component BSK_KF3CT_SRB was analyzed into 1 assay endpoint. […]
Active and inactive are the calls of the source. How the source made its calls: active means hit-call score of the fitted dose curve at least 0.9, where 1 is the maximum; inactive means score below 0.9.
Outcomes: active, inactive

compound	category.label
OC1CCCCC1	inactive
O=C(O)c1ccccc1C(c1ccc(O)cc1)c1ccc(O)cc1	inactive
CCc1ccc(CCOc2ccc(CC3SC(=O)NC3=O)cc2)nc1 (centres undefined)	inactive
c1ccc2c(c1)ccc1ccccc12	inactive
CCOC(=O)CC(O)(CC(=O)OCC)C(=O)OCC	inactive
CC(=O)NC1(c2cccc(F)c2)CCN(CC[C@@]2(c3ccc(Cl)c(Cl)c3)CN(c3ccccc3)C(=O)CO2)CC1	active
CN1CCC[C@H]1c1cccnc1	inactive
Nc1cccc2c(N)cccc12	inactive
CC(C)(C)c1ccc(O)c(C(C)(C)C)c1	active
OCCC(F)(F)C(F)(F)C(F)(F)C(F)(F)C(F)(F)C(F)(F)F	inactive
CC(C)(C)c1cccc(C(C)(C)C)c1O	active
C#C[C@]1(O)CC[C@H]2[C@@H]3CCC4=CC(=O)CC[C@@H]4[C@H]3CC[C@@]21C	inactive
C[C@@H]1C[C@H]2[C@@H]3CCC4=CC(=O)C=C[C@]4(C)[C@@]3(F)[C@@H](O)C[C@]2(C)[C@@]1(O)C(=O)COP(=O)(O)O	inactive
O=C(O)Cc1cc(I)c(Oc2cc(I)c(O)c(I)c2)c(I)c1	active
FC(F)(I)C(F)(F)C(F)(F)C(F)(F)C(F)(F)C(F)(F)I	active
COCC(C)O (centres undefined)	inactive
O=C(OCCOCCOC(=O)c1ccccc1)c1ccccc1	inactive
CCCCC(CC)COC(=O)CCCCC(=O)OCc1ccccc1 (centres undefined)	inactive
N#C[C@@H]1CC(F)(F)CN1C(=O)CNC1CC2CCC(C1)N2c1ncccn1 (some centres undefined)	inactive
CCCOc1sc(C(=O)N2CCC(c3cc(CN)ccc3F)CC2)c(C)c1Br	active
C=C(C)C(=O)OCCC(F)(F)C(F)(F)C(F)(F)C(F)(F)C(F)(F)C(F)(F)F	inactive
CC(C)(C)CC(C)(C)c1ccc(O)c(-n2nc3ccccc3n2)c1	inactive
CCC(C)(C)C1CCC(O)CC1 (centres undefined)	inactive
CCCCC(CC)COC(=O)CCCCC(=O)OCC(CC)CCCC (centres undefined)	inactive
